The reported measurements were obtained from paper PMC6481325.

Molecular target: MCT4 (Homo sapiens)
Construct: These cells predominantly express MCT4 as confirmed by Western blot and quantitative PCR analysis; host or cells: MDA-MB-231
Sequence (O15427 2-465 limits assumed): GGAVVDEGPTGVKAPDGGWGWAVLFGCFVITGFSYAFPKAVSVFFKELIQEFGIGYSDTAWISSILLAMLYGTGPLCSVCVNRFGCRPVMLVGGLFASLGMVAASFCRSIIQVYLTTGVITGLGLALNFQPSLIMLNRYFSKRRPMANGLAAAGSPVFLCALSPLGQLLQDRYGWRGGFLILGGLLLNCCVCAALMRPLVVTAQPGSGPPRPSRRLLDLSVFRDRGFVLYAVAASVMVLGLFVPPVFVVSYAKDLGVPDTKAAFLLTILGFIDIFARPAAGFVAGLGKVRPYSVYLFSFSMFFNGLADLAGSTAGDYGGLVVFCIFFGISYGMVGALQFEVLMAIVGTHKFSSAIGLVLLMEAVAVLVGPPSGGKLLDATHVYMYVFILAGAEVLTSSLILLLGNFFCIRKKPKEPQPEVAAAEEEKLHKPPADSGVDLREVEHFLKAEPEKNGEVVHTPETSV
Sequence (P35613 140-385 partner limits assumed): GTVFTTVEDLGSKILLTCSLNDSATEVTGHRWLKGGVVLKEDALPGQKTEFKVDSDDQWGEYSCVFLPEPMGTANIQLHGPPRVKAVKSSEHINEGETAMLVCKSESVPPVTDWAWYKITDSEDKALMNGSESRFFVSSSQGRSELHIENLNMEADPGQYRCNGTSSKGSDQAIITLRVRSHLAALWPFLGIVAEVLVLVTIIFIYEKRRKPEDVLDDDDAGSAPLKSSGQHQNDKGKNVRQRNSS
Assay: L-[14C]-lactate uptake study in MCT4 expressing MDA-MB-231 cells
Type: cell-based
Details: MCT4 IC50, CHC, lactate uptake
Description: In this study, an L-[^14C]-lactate based transport assay was developed by us to quantify MCT4 transport and its inhibition by test compounds. […] A 150 μL aliquot from each well was added to 4 mL EcoLite(+)™ scintillation fluid (MP Biomedicals) and radioactivity was determined by scintillation spectrometry. Inhibition by each test solution was calculated as a percentage of the maximum control uptake. […]
pIC50: −log10 of the molar value.
readout_kind: pIC50

Enter pIC50 (test system MCT4 (Homo sapiens)) for N#CC(=Cc1ccc(O)cc1)C(=O)O [CHC, α-cyano-4-hydroxy cinnamic acid, reference compound]
≤ 3.82
